B1: GFP aptamer (parent)
chain: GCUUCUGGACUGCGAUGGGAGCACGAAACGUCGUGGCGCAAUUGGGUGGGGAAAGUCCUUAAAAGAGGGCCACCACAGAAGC

Variants of: B1
Test: HiTS-RAP
Details: with EGFP
So I've got a bunch of variants here, and I need their pKd values.
# pKd: negative log10 of molar concentration; output just the value

Tell us which pKd value is on record for C32U U43C
8.64

Tell us which pKd value is on record for A28G U31C
8.24

Tell us which pKd value is on record for A27G U43C
8.35

Tell us which pKd value is on record for `U34C`
7.62

Tell us which pKd value is on record for `G50U`
7.91

Tell us which pKd value is on record for A72G C74U
8.13

Tell us which pKd value is on record for `C39G`
8.04

Tell us which pKd value is on record for `G33U`
7.45

Tell us which pKd value is on record for `G46C`
7.23

Tell us which pKd value is on record for `A9G`
7.83

Tell us which pKd value is on record for `C70U`
8.14

Tell us which pKd value is on record for `C39U`
7.99

Tell us which pKd value is on record for C10U C73U
8.28

Tell us which pKd value is on record for `C73A`
8.07

Tell us which pKd value is on record for A27G G68A
7.76

Tell us which pKd value is on record for `A75G`
8.01

Tell us which pKd value is on record for `C10A`
8.44

Tell us which pKd value is on record for `A41C`
8.00

Tell us which pKd value is on record for `G44A`
8.28

Tell us which pKd value is on record for `G46U`
7.53

Tell us which pKd value is on record for `C22A`
7.86

Tell us which pKd value is on record for A27G A79G
8.53

Tell us which pKd value is on record for A20G A41G
7.71

Tell us which pKd value is on record for `G38C`
7.08

Tell us which pKd value is on record for `U34A`
7.51

Tell us which pKd value is on record for C10U G14A
8.21

Tell us which pKd value is on record for `A40G`
8.31
